B1: ESRRG (parent)
chain: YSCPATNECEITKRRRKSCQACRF

Variants of: B1
Test: protein stability index of a GFP-peptide fusion (GPS, HEK-293T) (PSI 1-6); higher = more stable;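 also: lentivirally expressed fusions sorted by FACS into six bins by GFP to DsRed ratio, PSI derived from sequencing read proportions per bin multiplied by bin number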
Details: c terminus: a fixed tail appended
Entry flag: Condition met if protein stability index reaches 3; Condition not met if it does not.

>>> qualitative_label("YSCPATNECEITKRRRKSCQARRF")
"Condition met"

State whether the measured protein stability index reaches 3, counting equality as reaching it, for YSEPATNECEITKRRRKSCQACRF
Condition met

State whether the measured protein stability index reaches 3, counting equality as reaching it, for YSCPATNECYITKRRRKSCQACRF
Condition not met
